Origin of the recorded values: PubChem BioAssay (NCI)

- assay-protocol: NCI Yeast Anticancer Drug Screen. Data for the bub3 strain (AID 167)
- test-settings: S. cerevisiae bub3 mutant strain, at 50.0 µM, active compounds read high
The panel holds about 79,000 compounds, 15% with a hit somewhere; the sample as a whole holds those more often.
Kindly state growth inhibition for each of the entries shown.
Field: numeric (%). Do not append units.

Query `CCOC(=O)/C(Cl)=C1\SN(C(=O)OCC)N=C1C` yields growth inhibition of 3.8

Sample `CCCCSC1=NCCN1` ; growth inhibition observed: 5.25

`COc1ccc(/C(C#N)=C\c2ccc(N(C)C)cc2)cc1` has a reported growth inhibition of 10.2

The measured growth inhibition associated with `COC(=O)C1(Cc2ccc3c(c2)CCC3)Cc2cc3c(cc2C1)CCC3` reads -0.35

growth inhibition for `O=C(Oc1ccc2ccccc2c1)c1ccccc1` is 2.7

The measured growth inhibition associated with `O=C1NC(c2ccccc2)(c2ccccc2)C(=O)N1CCCCCCN1C(=O)NC(c2ccccc2)(c2ccccc2)C1=O` reads -7.15

growth inhibition recorded for this molecule, NC(Cc1ccccc1)C(=O)CCl (configuration not stated) , is 36.2

Measured growth inhibition of `CC(C)NC(=O)N(C(=O)C(F)(F)F)C(C)C` : 2.1

The recorded growth inhibition for CCCCCCCCCCCCCCCCOP(=O)(O)OP(=O)(O)OCC1OC(n2ccc(N)nc2=O)CC1O (configuration not stated) is 20.6

Documented growth inhibition of O=C1CC2CC1C1CC(Br)C(Br)C21 (configuration not stated) : -15.7

growth inhibition recorded for this molecule, `COC(=O)Cc1ccccn1` , is -21.5

growth inhibition recorded for this molecule, `Cc1ccc(OCc2cccc(Cl)c2)cc1` , is -42.1
